Measured pIC50 accompanies every entry in the list below.
Biological target: UniProt:O75762
Experiment: 45Calcium uptake assay: inhibition of AITC induced cellular uptake of radioactive calcium
Details: AITC (30 μM) induced 45Ca uptake; Human TRPA1 expressing CHO cells; read-out: Human IC50 value (range)
pIC50: −log10 of the molar value.

compound | tested.system | measured.property | result
Cn1c(=O)c2c(ccn2CC(=O)Nc2nc(-c3ccc(OCC(F)(F)F)c(Br)c3)cs2)n(C)c1=O [Example 23] | UniProt:O75762 | pIC50 | 7.00 to 7.30
Cn1nc2c(c1CC(=O)Nc1nc(-c3ccc(C(F)(F)F)c(F)c3F)cs1)c(=O)n(C)c(=O)n2C [Example 62] | UniProt:O75762 | pIC50 | > 7.30
Cn1nc2c(c1CC(=O)Nc1nc(-c3ccc(F)c(OC(F)(F)F)c3)cs1)c(=O)n(C)c(=O)n2C [Example 60] | UniProt:O75762 | pIC50 | > 7.30
Cc1cc2c(c(=O)n(C)c(=O)n2C)n1CC(=O)Nc1nc(-c2cc(F)c(OCC(C)(C)C)c(Cl)c2)cs1 [Example 28] | UniProt:O75762 | pIC50 | > 7.30
CC(C)CCOc1c(F)cc(-c2csc(NC(=O)Cn3ncc4c3c(=O)n(C)c(=O)n4C)n2)cc1F [Example 76] | UniProt:O75762 | pIC50 | < 7.00
Cn1nc2c(c1CC(=O)Nc1nc(-c3ccc(C(F)(F)F)cc3)cs1)c(=O)n(C)c(=O)n2C [Example 47] | UniProt:O75762 | pIC50 | > 7.30

Fill in: UniProt:O75762 pIC50 for Cn1nc2c(c1CC(=O)Nc1nc(-c3ccc(C(F)(F)F)c(F)c3)cs1)c(=O)n(C)c(=O)n2C [Example 54] = > 7.30

---

Target: Human TRPA1 (Homo sapiens, UniProt O75762)
Construct: expressed in transfected cells; host or cells: CHO cells
Sequence (O75762 whole entry): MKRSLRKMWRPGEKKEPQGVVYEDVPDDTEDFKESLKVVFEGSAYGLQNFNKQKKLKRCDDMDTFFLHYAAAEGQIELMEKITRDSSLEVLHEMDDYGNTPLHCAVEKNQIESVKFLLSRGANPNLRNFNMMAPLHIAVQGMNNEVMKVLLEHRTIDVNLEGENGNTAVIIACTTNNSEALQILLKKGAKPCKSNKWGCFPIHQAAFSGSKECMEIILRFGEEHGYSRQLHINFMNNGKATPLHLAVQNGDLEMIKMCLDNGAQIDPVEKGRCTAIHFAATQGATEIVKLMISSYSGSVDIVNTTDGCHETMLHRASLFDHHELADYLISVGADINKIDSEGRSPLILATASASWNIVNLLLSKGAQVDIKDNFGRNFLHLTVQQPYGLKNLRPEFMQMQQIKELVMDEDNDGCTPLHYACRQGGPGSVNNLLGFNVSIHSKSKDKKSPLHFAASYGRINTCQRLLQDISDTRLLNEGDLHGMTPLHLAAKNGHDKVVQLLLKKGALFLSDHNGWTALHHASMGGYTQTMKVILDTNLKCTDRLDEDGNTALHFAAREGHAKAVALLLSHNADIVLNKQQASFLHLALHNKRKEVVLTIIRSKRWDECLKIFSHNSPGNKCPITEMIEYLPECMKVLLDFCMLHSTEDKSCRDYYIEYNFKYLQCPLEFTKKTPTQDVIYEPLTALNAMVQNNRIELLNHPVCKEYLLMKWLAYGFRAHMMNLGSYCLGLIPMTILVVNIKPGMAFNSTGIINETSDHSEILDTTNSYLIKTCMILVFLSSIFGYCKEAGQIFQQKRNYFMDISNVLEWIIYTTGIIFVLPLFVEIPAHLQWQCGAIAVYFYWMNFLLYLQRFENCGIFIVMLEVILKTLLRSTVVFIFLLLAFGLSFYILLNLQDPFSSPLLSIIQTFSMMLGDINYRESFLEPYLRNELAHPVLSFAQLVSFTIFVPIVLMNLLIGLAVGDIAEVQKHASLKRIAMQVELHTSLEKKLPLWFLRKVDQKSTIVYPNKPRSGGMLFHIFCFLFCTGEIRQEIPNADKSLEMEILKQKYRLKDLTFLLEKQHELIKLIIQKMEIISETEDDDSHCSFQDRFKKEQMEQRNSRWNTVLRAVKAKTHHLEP
Experiment: 45Calcium uptake assay: inhibition of AITC induced cellular uptake of radioactive calcium
Format: cell-based
Conditions: 10.0 μM test compound; AITC (30 μM) induced 45Ca uptake; Human TRPA1 expressing CHO cells; read-out: Percentage inhibition at 10.0 μM
measured.property: inhibition at 10 µM (%)

test.smiles | tested.system | measured.property | result.unit | readout.number
Cn1c(=O)c2c(c(Br)cn2CC(=O)Nc2nc(-c3ccc(C(F)(F)F)c(F)c3)cs2)n(C)c1=O | Human TRPA1 (Homo sapiens, UniProt O75762) | inhibition at 10 µM | % | 95.4
Cn1c(=O)c2c(c(Br)cn2CC(=O)Nc2nc(-c3cc(F)c(OCC(C)(C)C)c(F)c3)cs2)n(C)c1=O | Human TRPA1 (Homo sapiens, UniProt O75762) | inhibition at 10 µM | % | 70.1
Cn1nc2c(c1CC(=O)Nc1nc3cc(OC(F)(F)F)ccc3s1)c(=O)n(C)c(=O)n2C | Human TRPA1 (Homo sapiens, UniProt O75762) | inhibition at 10 µM | % | 71.5
Cn1c(=O)c2c(cnn2CC(=O)Nc2nc(-c3cc(F)c(OCC(F)(F)F)c(F)c3)cs2)n(C)c1=O | Human TRPA1 (Homo sapiens, UniProt O75762) | inhibition at 10 µM | % | 99.9
Cn1c(=O)c2c(ccn2CC(=O)Nc2nc(-c3cc(Cl)c(OCC4CCC4)c(Cl)c3)cs2)n(C)c1=O | Human TRPA1 (Homo sapiens, UniProt O75762) | inhibition at 10 µM | % | 76.9
Cc1cc2c(c(=O)n(C)c(=O)n2C)n1CC(=O)Nc1nc(-c2ccc(OCC(C)(C)C)c(Cl)c2)cs1 | Human TRPA1 (Homo sapiens, UniProt O75762) | inhibition at 10 µM | % | 96.3
Cn1c(=O)c2c(ccn2CC(=O)Nc2nc(-c3cc(Cl)c(OCC(C)(C)C)c(Cl)c3)cs2)n(C)c1=O | Human TRPA1 (Homo sapiens, UniProt O75762) | inhibition at 10 µM | % | 98.8
Cn1c(=O)c2c(cnn2CC(=O)Nc2nc(-c3ccc(OCC(C)(C)C)c(Cl)c3)cs2)n(C)c1=O | Human TRPA1 (Homo sapiens, UniProt O75762) | inhibition at 10 µM | % | 98.8
Cn1nc2c(c1CC(=O)Nc1nc(-c3cc(F)c(OC(F)F)c(F)c3)cs1)c(=O)n(C)c(=O)n2C | Human TRPA1 (Homo sapiens, UniProt O75762) | inhibition at 10 µM | % | 98.3
Cc1cc2c(c(=O)n(C)c(=O)n2C)n1CC(=O)Nc1nc(-c2cc(F)c(OCC(F)(F)F)c(F)c2)cs1 | Human TRPA1 (Homo sapiens, UniProt O75762) | inhibition at 10 µM | % | 98.3
CC(C)CCOc1c(F)cc(-c2csc(NC(=O)Cn3ncc4c3c(=O)n(C)c(=O)n4C)n2)cc1F | Human TRPA1 (Homo sapiens, UniProt O75762) | inhibition at 10 µM | % | 95.6
Cn1c(=O)c2c(cnn2CC(=O)Nc2nc(-c3ccc(OCC(C)(C)C)c(F)c3)cs2)n(C)c1=O | Human TRPA1 (Homo sapiens, UniProt O75762) | inhibition at 10 µM | % | 99.8
Cn1nc2c(c1CC(=O)Nc1nc(-c3ccc(OC(F)F)c(F)c3)cs1)c(=O)n(C)c(=O)n2C | Human TRPA1 (Homo sapiens, UniProt O75762) | inhibition at 10 µM | % | 98.3
Cn1nc2c(c1CC(=O)Nc1nc(-c3cccc(C(F)(F)F)c3F)cs1)c(=O)n(C)c(=O)n2C | Human TRPA1 (Homo sapiens, UniProt O75762) | inhibition at 10 µM | % | 99.2
Cc1nn(CC(=O)Nc2nc(-c3cc(F)c(OCC(C)(C)C)c(F)c3)cs2)c2c(=O)n(C)c(=O)n(C)c12 | Human TRPA1 (Homo sapiens, UniProt O75762) | inhibition at 10 µM | % | 99
CC(C)Cc1ccc(-c2csc(NC(=O)Cc3c4c(=O)n(C)c(=O)n(C)c4nn3C)n2)cc1 | Human TRPA1 (Homo sapiens, UniProt O75762) | inhibition at 10 µM | % | 98.9
Cc1cc2c(c(=O)n(C)c(=O)n2C)n1CC(=O)Nc1nc(-c2cc(F)c(OCC(C)(C)C)c(Cl)c2)cs1 | Human TRPA1 (Homo sapiens, UniProt O75762) | inhibition at 10 µM | % | 99.7
Cn1c(=O)c2c(ccn2CC(=O)Nc2nc(-c3cc(Cl)c(OCCC(F)(F)F)c(Cl)c3)cs2)n(C)c1=O | Human TRPA1 (Homo sapiens, UniProt O75762) | inhibition at 10 µM | % | 92.5

---

Biological target: Human TRPA1 (Homo sapiens)
Construct: expressed in transfected cells; host or cells: CHO cells
Experiment: 45Calcium uptake assay: inhibition of AITC induced cellular uptake of radioactive calcium
Type: cell-based
Conditions: 10.0 μM test compound; AITC (30 μM) induced 45Ca uptake; Human TRPA1 expressing CHO cells; read-out: Percentage inhibition at 10.0 μM
measured.property: inhibition at 10 µM (%)

Below are worked cases with known answers.
test.smiles | measured.property | readout.number
Cn1nc2c(c1CC(=O)Nc1nc(-c3cc(F)cc(F)c3)cs1)c(=O)n(C)c(=O)n2C | inhibition at 10 µM | 64.8
Cn1c(=O)c2c(cnn2CC(=O)Nc2nc(-c3cc(F)c(OCC(C)(C)C)c(F)c3)cs2)n(C)c1=O | inhibition at 10 µM | 99.7
Cn1c(=O)c2c(ccn2CC(=O)Nc2nc(-c3ccc(Cl)c(Cl)c3Cl)cs2)n(C)c1=O | inhibition at 10 µM | 82.3
Cn1nc2c(c1CC(=O)Nc1nc(-c3cc(F)cc(C(F)(F)F)c3)cs1)c(=O)n(C)c(=O)n2C | inhibition at 10 µM | 99.2
Cn1c(=O)c2c(CC(=O)Nc3nc(-c4cc(F)c(OCC(C)(C)C)c(F)c4)cs3)cn(C)c2n(C)c1=O | inhibition at 10 µM | 63.1

[1] CCN(CC)Cc1cn(CC(=O)Nc2nc(-c3ccc(C(F)(F)F)c(F)c3)cs2)c2c(=O)n(C)c(=O)n(C)c12
[2] Cn1c(=O)c2c(ccn2CC(=O)Nc2nc(-c3ccc(F)cc3F)cs2)n(C)c1=O
Prompt line: Which value of inhibition at 10 µM is smaller, the one for 1 or the one for 2 ? Which one? Tell me its label.
Response line: 2
(2: 21.4%, 1: 86.2%)

---

Measured IC50 accompanies every entry in the list below.
Molecular target: Human TRPA1 (Homo sapiens)
Assay: 45Calcium uptake assay: inhibition of AITC induced cellular uptake of radioactive calcium
Conditions: AITC (30 μM) induced 45Ca uptake; Human TRPA1 expressing CHO cells; read-out: Human IC50 value (range)

compound | IC50
Cn1c(=O)c2c(ccn2CC(=O)Nc2nc(-c3cc(F)c(OCCC(F)(F)F)c(F)c3)cs2)n(C)c1=O [Example 12] | < 50 nM
Cn1c(=O)c2c(ccn2CC(=O)Nc2nc(-c3cc(F)c(OCC(C)(C)C)c(F)c3)cs2)n(C)c1=O [Example 8] | < 50 nM

So for Cc1cc2c(c(=O)n(C)c(=O)n2C)n1CC(=O)Nc1nc(-c2cc(F)c(OCC(C)(C)C)c(F)c2)cs1 [Example 24] , the logged IC50 turned out to be < 50 nM

So for Cc1cc2c(c(=O)n(C)c(=O)n2C)n1CC(=O)Nc1nc(-c2cc(F)c(OCC3CCC3)c(F)c2)cs1 [Example 27] , the logged IC50 turned out to be < 50 nM

Data provenance is patent US9000159B2.
